- assay-system: pig kidney FBPase M177A (Sus scrofa, UniProt P00636, M178A)
- Construct: His6 (C)
- Sequence (P00636 1-338 M178A): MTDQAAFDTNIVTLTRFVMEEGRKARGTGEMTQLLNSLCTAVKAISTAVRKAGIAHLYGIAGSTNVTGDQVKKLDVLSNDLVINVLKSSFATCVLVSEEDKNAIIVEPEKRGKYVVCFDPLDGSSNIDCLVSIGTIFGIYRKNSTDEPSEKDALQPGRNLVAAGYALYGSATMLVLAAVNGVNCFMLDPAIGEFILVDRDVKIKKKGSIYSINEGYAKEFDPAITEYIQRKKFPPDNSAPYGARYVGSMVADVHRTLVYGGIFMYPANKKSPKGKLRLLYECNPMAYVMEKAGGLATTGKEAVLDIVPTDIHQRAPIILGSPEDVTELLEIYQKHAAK
- assay-text: Malachite Green kinetic assay, M177A mutant
- details: enzyme M177A
endpoint-name: pKi
# pKi is unitless: minus log10 of the molar concentration; print number only

(Q) Report pKi for O=P(O)(O)OC[C@H]1O[C@@](CO)(OP(=O)(O)O)[C@@H](O)[C@@H]1O [F2,6-BP, fructose-2,6-bisphosphate] please.
(A) 6.77
